- experimental_protocol: inhibitors of GR-EGFP nuclear translocation, primary screen, dynein cargo transport inhibitor project, imaging, high-content, 3617.4 mouse cells (AID 1381)
- measurement_conditions: at 20 µM, stronger effect = lower value, stimulated with dexamethasone, 1 µM
Screen size: about 220,000 compounds; about 1,000 (0.45%) were called active. This excerpt belongs to a sample that is enriched for actives.
Checkbox rule: z-score lower than -1 = TRUE; z-score not lower than -1 = FALSE.

CCOc1ccc(C(=O)NC2CCN(CC(=O)NCc3cccs3)CC2)cc1    TRUE
CSCCC(NC(=O)COc1ccccc1)C(=O)Nc1ccc(C)cc1 (stereo not given)    FALSE
CCn1c(SCC(=O)Nc2nc(C)cs2)nnc1C(C)NC(=O)c1ccccc1 (stereo not given)    FALSE
O=C1c2ccccc2NC(c2ccccn2)N1NS(=O)(=O)c1ccccc1 (stereo not given)    TRUE

Decide: z-score of "O=c1[nH]c(N2CCN(Cc3ccc4c(c3)OCO4)CC2)nc2c1CCCC2" strictly below -1? TRUE

====

- experimental_protocol: inhibitors of GR-EGFP nuclear translocation, primary screen, dynein cargo transport inhibitor project, imaging, high-content, 3617.4 mouse cells (AID 1381)
- measurement_conditions: measured here: cell count per field, at 20 µM, stimulated with dexamethasone, 1 µM
Out of some 220,000 compounds screened, about 1,000 (0.45%) were called active. What follows is part of a selection rich in actives, with near analogues and random picks from the rest.
quantity: z-score
Please reply with the value in numeric form only.

CCCC1NC(=S)NC(C)=C1C(C)=O (stereo not given)    0.486
O=C(NCCOCc1ccc(Cl)cc1)c1ncn[nH]1    -0.271
Cc1ccc(NC(=O)CN(C)Cc2ccc(F)cc2)c([N+](=O)[O-])c1    -0.235
Cc1cc(=O)oc2c1c(C)nn2-c1ccc(Cl)cc1    1.43
O=C(CC(NC(=O)c1ccccc1)c1ccccc1)Nc1ccc(F)c(F)c1 (stereo not given)    0.477

So for "COc1ccc(Cl)cc1CSc1ncn[nH]1" , the logged z-score turned out to be -0.49

So for "COCCn1c(C)cc(C(=O)COC(=O)/C=C/c2cccc(OC)c2)c1C" , the logged z-score turned out to be 0.119

So for "O=c1oc(/C=C/c2ccccc2)nc2ccccc12" , the logged z-score turned out to be -1.1

====

- experimental_protocol: inhibitors of GR-EGFP nuclear translocation, primary screen, dynein cargo transport inhibitor project, imaging, high-content, 3617.4 mouse cells (AID 1381)
- measurement_conditions: at 20 µM, stronger effect = lower value, stimulated with dexamethasone, 1 µM
In all, about 220,000 compounds went through this assay and about 1,000 (0.45%) were called active. The list comes from a sample in which actives are over-represented; it also holds close analogues and randomly drawn compounds.
Checkbox rule: z-score lower than -0.2 = fulfilled; z-score not lower than -0.2 = not fulfilled.

Consider the following illustrative entries.
C/C(CC(=O)Nc1cccc(F)c1)=N\NC(=O)C(=O)NC1CCCCC1    not fulfilled
CCOC(=O)C(=CNc1cccc(C)n1)C(=O)OCC    not fulfilled
COc1ccc(C(C#N)N2N=C(C)CC2(C)C)cc1 (stereo unspecified)    not fulfilled
CC1=C/C(=N\S(=O)(=O)c2ccccc2)C(C(C)C)=CC1=O    fulfilled

Decide: z-score of "CCN(CC)c1ccc2cc(C(=O)O)c(=O)oc2c1" strictly below -0.2? not fulfilled

Decide: z-score of "O=C(c1cccs1)N1CCN(C(=O)N2CCOCC2)CC1" strictly below -0.2? fulfilled

Decide: z-score of "O=C(/C=C/c1cnc2ccccc2n1)NC1CCCCCC1" strictly below -0.2? not fulfilled

Decide: z-score of "COCCN(Cc1nc(-c2ccc(C(F)(F)F)cc2)no1)C(C)C" strictly below -0.2? fulfilled

Decide: z-score of "COc1cccc(-c2ccc(SCC(=O)N3CCN(c4ccccc4)CC3)nn2)c1" strictly below -0.2? not fulfilled

Decide: z-score of "O=[N+]([O-])c1cccc(-c2nnc3c4ccccc4c4ccccc4n23)c1" strictly below -0.2? not fulfilled

Decide: z-score of "O=C(Nn1c(SCc2ccc([N+](=O)[O-])cc2)nc2ccccc2c1=O)c1ccc(F)cc1" strictly below -0.2? fulfilled

Decide: z-score of "COC(=O)c1cc(C(=O)N(Cc2ccccc2)c2ccccn2)cc([N+](=O)[O-])c1" strictly below -0.2? not fulfilled

Decide: z-score of "Cc1cc(NC(=O)Nc2ccc(Cl)cc2)n(-c2ccccc2)n1" strictly below -0.2? fulfilled

Decide: z-score of "NNC(=O)c1ccc(Cl)cc1Cl" strictly below -0.2? not fulfilled

Decide: z-score of "Cc1ccc(O)c(CCc2ccccc2)n1" strictly below -0.2? not fulfilled

Decide: z-score of "Nn1cnnc1N/N=C/c1cc([N+](=O)[O-])c(Cl)cc1Cl" strictly below -0.2? not fulfilled

Decide: z-score of "CCOC(=O)C1(S(=O)(=O)c2ccccc2)CCN(Cc2ccccc2)CC1" strictly below -0.2? fulfilled
